Cited source: ChEMBL document CHEMBL6182864

Assay: Half life in SPF Sprague-Dawley rat at 1 mg/kg, iv by LC-MS/MS analysis
Assay type: ADME, organism-based
Conditions: in vivo
PROPERTY: half-life (h)
Provide only the numeric value, understood in h.

Exercise: Name the recorded half-life for Cc1ncsc1-c1ccc([C@H](C)NC(=O)[C@@H]2C[C@@H](O)CN2C(=O)[C@@H](NC(=O)C2(c3ccc(-c4cc(-c5ccccc5O)nnc4N)cc3)CC2)C(C)(C)C)cc1 .
Solution: 1.91

----------
Tested on: MCF7
Experiment: cells
Settings: Homo sapiens, MCF7, 72 h
pIC50: −log10 of the molar value.
PROPERTY: pIC50

Exercise: Sample Cc1ncsc1-c1ccc([C@H](C)NC(=O)[C@@H]2C[C@@H](O)CN2C(=O)[C@@H](NC(=O)C2(c3ccc(-c4cc(-c5ccccc5O)nnc4N)cc3)CC2)C(C)(C)C)cc1 — what was its pIC50?
Solution: < 4.52
